- System: SR leukemia
- method notes: NCI tumour cell line growth inhibition, 48 h
Where a SMILES comes first, the peptide text is derived from it. [ ]: non-standard residue; d: D form. The star is where a group is joined. Cbz = O=C(OCc1ccccc1)*; Aib = CC(C)(N)C(=O)O
reported metric: TGI

| compound | observed |
| --- | --- |
| Cc1oc2nc(N(C)C)n3cnnc3c2c1C | > 100 µM |
| COC(=O)Nc1nc2ccc(C(=O)c3cccs3)cc2[nH]1 | 5.98 µM |
| CN(C)Cc1cc(C(C)(C)C)cc(CN(C)C)c1O | > 100 µM |
| CC(C)(NC(=O)C(C)(C)NC(=O)OCc1ccccc1)C(=O)O (Cbz-[Aib]-[Aib]-OH) | > 100 µM |

So for CC1=C(C(=O)NCc2ccccc2)C(c2ccco2)C(C(=O)NCc2ccccc2)=C(C)N1 , the logged TGI turned out to be > 100 µM

Item: Cc1cc(OCC(O)CO)ccc1Cl (stereo not drawn) | TGI: > 100 µM

All figures here come from PubChem BioAssay (NCI).
